Reference source for all entries: patent US12440496B2

# system-name: hNPRA (Homo sapiens, UniProt P16066)
# Sequence (P16066 33-1061): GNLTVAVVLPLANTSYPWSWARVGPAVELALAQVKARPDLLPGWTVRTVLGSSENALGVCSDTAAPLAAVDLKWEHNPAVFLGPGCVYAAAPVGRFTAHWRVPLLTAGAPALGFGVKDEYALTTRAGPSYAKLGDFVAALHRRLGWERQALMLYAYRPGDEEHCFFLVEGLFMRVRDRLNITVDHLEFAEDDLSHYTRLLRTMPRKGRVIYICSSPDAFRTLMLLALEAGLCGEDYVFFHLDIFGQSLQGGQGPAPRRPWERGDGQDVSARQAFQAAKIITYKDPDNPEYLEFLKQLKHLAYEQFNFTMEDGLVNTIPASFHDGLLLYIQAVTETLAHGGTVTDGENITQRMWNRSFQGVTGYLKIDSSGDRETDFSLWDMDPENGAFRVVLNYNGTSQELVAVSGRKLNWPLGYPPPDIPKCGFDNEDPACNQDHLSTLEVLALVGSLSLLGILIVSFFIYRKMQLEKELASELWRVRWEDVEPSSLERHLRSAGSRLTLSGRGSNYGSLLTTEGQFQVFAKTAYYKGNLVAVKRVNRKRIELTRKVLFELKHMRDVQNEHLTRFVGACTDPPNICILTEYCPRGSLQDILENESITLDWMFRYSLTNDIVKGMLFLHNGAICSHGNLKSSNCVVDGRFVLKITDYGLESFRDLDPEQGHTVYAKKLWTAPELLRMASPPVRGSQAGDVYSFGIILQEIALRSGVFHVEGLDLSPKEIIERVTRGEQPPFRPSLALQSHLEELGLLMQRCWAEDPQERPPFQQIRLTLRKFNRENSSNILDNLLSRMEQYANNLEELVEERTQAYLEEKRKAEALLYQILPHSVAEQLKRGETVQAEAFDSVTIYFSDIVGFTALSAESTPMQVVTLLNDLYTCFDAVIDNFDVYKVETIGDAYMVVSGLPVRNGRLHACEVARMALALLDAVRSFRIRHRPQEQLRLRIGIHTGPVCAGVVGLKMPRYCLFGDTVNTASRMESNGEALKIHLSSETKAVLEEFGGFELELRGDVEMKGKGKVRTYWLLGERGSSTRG
# assay-details: NPRA Functional Cell Assay (cGMP HTRF, NPRA HEK JumpIn stable cells)
# run-conditions: cGMP production, 1 hour at 37° C., 10-point dose response
Counter-ions that a name gives are not always drawn.
Just a reminder that ties go to NO: only EC50 strictly below 500 nM counts as YES.

CC(C)(C)[C@H]1CCc2nc3sc(C(=O)N[C@H](CCN4CCCC(c5cccnc5)C4)c4cccc(NS(C)(=O)=O)c4)cc3cc2C1 (mixture of isomers) [Example 18] :: NO
CN1CC[C@H](NC(=O)c2cccc([C@@H](CCN3CCC(O)CC3)NC(=O)c3nc4cc5c(nc4s3)CC[C@H](C(C)(C)C)C5)c2)C1 (racemic) [Example 138] :: YES
CC(C)(C)[C@H]1CCc2nc3sc(C(=O)N[C@H](CCN)c4ccccc4)cc3cc2C1 [Example 229] :: NO
CC(C)(C)[C@H]1CCc2nc3sc(C(=O)N[C@H](CCN4CCC(O)CC4)c4cccc(C(=O)NC5CCNC5=O)c4)nc3cc2C1 (mixture of isomers) [Example 154] :: NO
CC(C)(C)[C@H]1CCc2nc3sc(C(=O)N[C@H](CCN4CCC(O)(CN)CC4)c4ccc(-c5cnc(O)c(F)c5)cc4)nc3cc2C1 (racemic) [Example 199, formate] :: YES
CC(C)(C)[C@H]1CCc2nc3sc(C(=O)N[C@H](CCN4CCCC(O)C4)c4ccccc4)cc3cc2C1 (some centres unmarked) [Example 251] :: NO
CC(C)(C)[C@H]1CCc2nc3sc(C(=O)N[C@H](CCN4CCCC(C(=O)O)C4)c4ccc(-c5ccc(=O)[nH]c5)cc4)cc3cc2C1 (mixture of isomers) [Example 56] :: NO
Cc1[nH]cnc1-c1ccc([C@@H](CCN2CCC(O)CC2)NC(=O)c2nc3cc4c(nc3s2)CC[C@H](C(C)(C)C)C4)cc1 (racemic) [Example 174] :: NO
CC(C)(C)[C@H]1CCc2nc3sc(C(=O)N[C@H](CCN4CCC(O)CC4)c4ccc(N5CCOC5=O)cc4)nc3cc2C1 [Example 230] :: NO
CC(C)(C)[C@H]1CCc2nc3sc(C(=O)N[C@H](CCN4CCC(O)CC4)c4ccc(-c5c[nH]c(=O)c(F)c5)cc4)nc3cc2C1 [Example 82] :: YES
CC(C)(C)[C@H]1CCc2nc3sc(C(=O)N[C@H](CCN4CCC(O)CC4)c4cccc(C(=O)N5CC(N6CCOCC6)C5)c4)nc3cc2C1 (racemic) [Example 157] :: NO
CC1(NC(=O)c2cccc([C@@H](CCN3CCC(C(=O)O)CC3)NC(=O)c3nc4cc5c(nc4s3)CC[C@H](C(C)(C)C)C5)c2)CNC1 (racemic) [Example 125] :: NO
CC(C)(C)[C@H]1CCc2nc3sc(C(=O)N[C@H](CCN4CCC(n5cnnc5)CC4)c4ccc(-c5ccc(=O)[nH]c5)cc4)cc3cc2C1 (racemic) [Example 29] :: YES
COC1CCN(CC[C@@H](NC(=O)c2nc3cc4c(nc3s2)CC[C@H](C(C)(C)C)C4)c2cccc(C(=O)NC3CN(C)C3)c2)CC1 (racemic) [Example 109] :: NO
CC(C)(C)[C@H]1CCc2nc3sc(C(=O)N[C@H](CCN4CCC(C(F)F)CC4)c4ccc(-c5ccc(=O)[nH]c5)cc4)cc3cc2C1 (racemic) [Example 60] :: NO
CN(C)CC[C@@H](NC(=O)c1nc2cc3c(nc2s1)CC[C@H](C(C)(C)C)C3)c1cccc(C(=O)NCC2CCN(C)C2)c1 (mixture of isomers) [Example 88] :: YES
CC(C)(C)[C@H]1CCc2nc3sc(C(=O)N[C@H](CCN4CCC(O)CC4)c4ccc(-c5ccncc5N)cc4)nc3cc2C1 (racemic) [Example 175] :: NO
CN(C)CC[C@@H](NC(=O)c1nc2cc3c(nc2s1)CC[C@H](C(C)(C)C)C3)c1cccc(C(=O)N[C@@H]2CNC[C@H]2O)c1 (racemic) [Example 90] :: YES
CC(C)(C)[C@H]1CCc2nc3sc(C(=O)N[C@H](CCN4CCCCC4CO)c4ccc(-c5ccc(=O)[nH]c5)cc4)cc3cc2C1 (mixture of isomers) [Example 30] :: YES
CC(C)(C)[C@H]1CCc2nc3sc(C(=O)N[C@H](CCN4CCC(O)CC4)c4cccc(C(=O)NC5CNC5)c4)nc3cc2C1 (racemic) [Example 136] :: YES
CN(C)CC[C@@H](NC(=O)c1nc2cc3c(nc2s1)CC[C@H](C(C)(C)C)C3)c1cccc(C(=O)N2CC(C)(O)C2)c1 (racemic) [Example 93] :: NO
CC(C)(C)[C@H]1CCc2nc3sc(C(=O)N[C@H](CCN4CCCCC4)c4ccc(-c5ccoc5)cc4)cc3cc2C1 (racemic) [Example 3] :: NO
CN1CC(NCC[C@@H](NC(=O)c2cc3cc4c(nc3s2)CC[C@H](C(C)(C)C)C4)c2ccc(-c3ccc(=O)[nH]c3)cc2)C1 (racemic) [Example 64] :: NO
